These data points were gathered from patent US8609638B2.

molecular target: IspH (LytB), E-4-hydroxy-3-methyl-but-2-enyl diphosphate reductase (Aquifex aeolicus, UniProt O67625); construct: inferred from Ni-NTA purification with imidazole elution; made in house; host or cells: E. coli BL-21(DE3); test: biochemical; parameters: species or system A. aeolicus; settings: IspH inhibition; read-out: Ki
Sequence (O67625 whole entry): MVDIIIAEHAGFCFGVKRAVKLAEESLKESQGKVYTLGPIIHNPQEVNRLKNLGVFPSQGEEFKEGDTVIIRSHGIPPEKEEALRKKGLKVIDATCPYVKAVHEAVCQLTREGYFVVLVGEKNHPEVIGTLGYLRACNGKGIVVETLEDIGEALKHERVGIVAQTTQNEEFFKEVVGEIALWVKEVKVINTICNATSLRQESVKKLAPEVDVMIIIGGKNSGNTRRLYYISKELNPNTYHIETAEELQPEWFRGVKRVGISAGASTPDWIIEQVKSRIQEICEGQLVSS

{"COMPOUND": "C#CCO [Propargyl alcohol, reference compound]", "Ki": "> 10 mM"}

* * *

target: IspH (LytB), E-4-hydroxy-3-methyl-but-2-enyl diphosphate reductase (Aquifex aeolicus, UniProt O67625); construct: inferred from Ni-NTA purification with imidazole elution; made in house; host or cells: E. coli BL-21(DE3); assay: biochemical; parameters: species or system A. aeolicus; conditions: IspH inhibition; Ki deduced from IC50 by Cheng-Prusoff equation; read-out: Ki
pKi: −log10 of the molar value.
PROPERTY MEASURED: pKi

{"MOLECULE": "C#CCCOP(=O)(O)OP(=O)(O)O [BPH-1077, But-3-ynyl diphosphate]", "PROPERTY MEASURED": "pKi", "OBS VALUE": "~6.70"}
